src = the supplement of paper PMC9170038

- Tested on: MS2 coat protein
- Protocol summary: apparent KD of MS2 coat protein; designed switch direction (-1 OFF switch, 1 ON switch): 1; higher = weaker reporter binding
- Test parameters: input ligand: none
Here, each record is paired with measured apparent KD of MS2 coat protein data.
Metric name: apparent KD of MS2 coat protein

>  <Record sequence>
GUGGAGGGUUAAGGAUAUUGAAUACAUAUGUUUAACAUGAGGAUCACCCAUGUGGGUUGCGGUAUCGAGAAGGUAAAUUACUGG [salish99_SSNG2_r04_035] (Eterna round: R96, puzzle: Same State NG 2)

>  <Tested target>
MS2 coat protein

>  <Reading>
0.133 µM

$$$$
>  <Record sequence>
GCUCGAUGAAAGUCCUACAUGAGGAUCACCCAUGUACGUGGGCAGGAUAUCUACAUGCAGAAUGUAGAGAAGGGCCCAUCGAGC [SameState NG3 #59] (Eterna round: R96, puzzle: Same State NG 3)

>  <Tested target>
MS2 coat protein

>  <Reading>
0.0252 µM

$$$$
>  <Record sequence>
GCUACGGACGUAGGAUAUGUAGGAUAUGGCGAGAGCUAAGCUUGGAAGUCACUUCAGCCAGAAGGACAGAAGGACGCCGUGAGG [pwkr ssNG2 2FMN + F9.17] (Eterna round: R96, puzzle: Same State NG 2)

>  <Tested target>
MS2 coat protein

>  <Reading>
0.0295 µM

$$$$
>  <Record sequence>
GGAAAGAGGUUAGGAUAUGCAUGGCUGGGACAUGAGGAUCACCCAUGUAAUAGAAGAAAUCUAGGGUAGAAGGGACAAGGAAGG [ssng2 v2 a] (Eterna round: R96, puzzle: Same State NG 2)

>  <Tested target>
MS2 coat protein

>  <Reading>
0.644 µM

$$$$
>  <Record sequence>
ACAUGAGGAUCACCCAUGUAUGCUCAGGAAACUGUGCAGCAUUAGGAUAUGGAUCCUAAUUGGAUCCAGAAGGAGUGAAUUAUU [Fiskers NG3ss - 26] (Eterna round: R96, puzzle: Same State NG 3)

>  <Tested target>
MS2 coat protein

>  <Reading>
0.126 µM

$$$$
>  <Record sequence>
UUGAAGAAUUAAGGAUAUCGAGUCGUCUAAUUAAACAUGAGGAUCACCCAUGUGGGUUGCGGUAUCGAGAAGGUAAAUUACUAG [JL JR Sub099 mod 3] (Eterna round: R96, puzzle: Same State NG 2)

>  <Tested target>
MS2 coat protein

>  <Reading>
0.037 µM

$$$$
>  <Record sequence>
AUAUGAGGAGCAGGAUAUGCGGAGAAGAAAGAAGCAGAAGGGCUCAUGGGACAACAUGAGGAUCACCCAUGUUCUCCGCGAUGA [AK SSNG1-V2-3.2] (Eterna round: R96, puzzle: Same State NG 1)

>  <Tested target>
MS2 coat protein

>  <Reading>
0.523 µM

$$$$
>  <Record sequence>
AAAUAAUAGGCAGGAUAUGGGAAAGGAAGUGUACCAGAAGGGCCGCAACUCAAUACAACAUGAGGAUCACCCAUGUUAGUGUCG [PowerStrip SSNG 1.5] (Eterna round: R96, puzzle: Same State NG 1)

>  <Tested target>
MS2 coat protein

>  <Reading>
0.0157 µM

$$$$
>  <Record sequence>
UCUGCAUGAACAGGAUAUGGGUUCAGAGCGGGAGUGCGCUUUGACACAUGAGGAUCACCCAUGUCCCAGAAGGGUUCAAGCGGC [Rianbein] (Eterna round: R96, puzzle: Same State NG 2)

>  <Tested target>
MS2 coat protein

>  <Reading>
0.43 µM

$$$$

* * *

Each item that follows carries a reported apparent KD of MS2 coat protein.
- Test system: MS2 coat protein
- Protocol summary: apparent KD of MS2 coat protein; designed switch direction (-1 OFF switch, 1 ON switch): -1; higher = weaker reporter binding
- Test parameters: input ligand: none
Metric name: apparent KD of MS2 coat protein (nM)

>  <Record sequence>
ACGUGGGCCCUUAGUGAACAUGAGGAUCACCCAUGUAACCACAAGGAUAUCUACGCCAGCACGCGAGAGAAGGUGUGAAAUAAU [Maorbetiza] (Eterna round: R96, puzzle: Exclusion NG 3)

>  <Reading>
44.8

$$$$
>  <Record sequence>
GCAAGCUUUUGCUCGUCUUACAUGAGGAUCACCCAUGUCGGGUGAUUGCUUCGUGCCCGGGCCCGCCGGGCCCGGGC [-41.5, -70.8 kcal, A 12%] (Eterna round: R97, puzzle: Sensor, turn-off variant 1)

>  <Reading>
97.8

$$$$
>  <Record sequence>
CUGCUCCGUGUAGGAUAUCCGCGCAACCAAUGCGGAGAAGGACAUGAGGAUCACCCAUGUAUGUUAUUAUCACGUGAAGCGUCC [Design 26] (Eterna round: R96, puzzle: Exclusion NG 1)

>  <Reading>
24.8

$$$$
>  <Record sequence>
UUAAUUAAUUAAUUAUAAGAUCAACAUGAGGAUCACCCAUGUGAGGAUAUCAGCUCGUUUAGAGCUGAGAAGGCACAAAUAAUU [ExNG3/16-B2] (Eterna round: R96, puzzle: Exclusion NG 3)

>  <Reading>
49.8

$$$$
>  <Record sequence>
UAAAAUAAACAUGAGGAUCACCCAUGUGAAUGGACUCCUCGGGAGGAUAUUCUGCUUAAAGGUCAGGAGAAGGCCCAUUGCAAU [Isinza] (Eterna round: R96, puzzle: Exclusion NG 3)

>  <Reading>
197

$$$$
>  <Record sequence>
CGCUGGACAGGAUAUGUUCUUGGGCACUUGAGGAUCACCCAAGUCAUCGGGACAUCAGGCACAGAAGGGUCGUUGG [salish99_ex5_r4_029] (Eterna round: R97, puzzle: Exclusion 5)

>  <Reading>
25.6

$$$$
>  <Record sequence>
GUGGAACAAGGAUAUCUAACCUCGGACAUGAGGAUCACCCAUGUAUGUCUCAAGAGACCUAGAGAAGGUGUUCGUG [Eternabot (L1) Solution 32] (Eterna round: R97, puzzle: Exclusion 5)

>  <Reading>
30.7

$$$$
>  <Record sequence>
UUUCCUGCGCGGGUUUUUUACAUGAGGAUCACCCAUGUCCUCUGCUUGUCUUGUCUUGGGCUUGUUUCGGGUUCGGG [-18.4, -40.2 kcal, A 8%] (Eterna round: R97, puzzle: Sensor, turn-off variant 1)

>  <Reading>
1190

$$$$
>  <Record sequence>
UUAAUUAAUUAAGGCUGAAGAUCACAUGAGGAUCACCCAUGUAAGGAUAUCAGCUCGAUUAGAGCUGAGAAGGUACAUGCAGCC [ExNG3/18-B1] (Eterna round: R96, puzzle: Exclusion NG 3)

>  <Reading>
319

$$$$
>  <Record sequence>
ACUCAGUGAGGAUAUCGCCAGAGAGCCGCAACAGCUCCUGAUGAGAAGGCACAUGAGGAUCACCCAUGUAAGCA [EX4 C.19] (Eterna round: R97, puzzle: Exclusion 4)

>  <Reading>
116

$$$$
>  <Record sequence>
CACGUGUCAGGAUAUCCCGCGCGCGCUUCACCGAGAGUGCGGGAGAAGGGACAUGAGGAUCACCCAUGUCCUUC [Eternabot (L1) Solution 93] (Eterna round: R97, puzzle: Exclusion 4)

>  <Reading>
16.2

$$$$
>  <Record sequence>
AAUGCGGACAAAGGAUAUUGCGGUGACCGGCUCGGCGUACCGAGCCUACAUGAGGAUCACCCAUGUAAGAAGGUUGUCGCAAAA [Mat - Exclusion NG 2 - Mod of JL - D75] (Eterna round: R96, puzzle: Exclusion NG 2)

>  <Reading>
17.5

$$$$
>  <Record sequence>
CUAGCGAAUGUAGGAUAUCGGACUGUUUCAGUCUGAGAAGGACAUGAGGAUCACCCAUGUAUUGCUACGUGAGUAGCUCGCUAG [JL ENG1 3.92] (Eterna round: R96, puzzle: Exclusion NG 1)

>  <Reading>
18

$$$$
>  <Record sequence>
CUCGUGUGAGGAUAUCGAUUAUGGAAGUCUAGAUCCAUACGCGAGAAGGCACAUGAGGAUCACCCAUGUAAUGG [jl-ex4-4.35 ViennaUCT mod] (Eterna round: R97, puzzle: Exclusion 4)

>  <Reading>
176

$$$$
>  <Record sequence>
AGCUGUGGCCGAGGAUAUCUAACAGUCCCAACCGAAAUAUAAUCGGACAUGAGGAUCACCCAUGUAGAGAAGGCGGUCUCAGCA [Eli eng2 - 072] (Eterna round: R96, puzzle: Exclusion NG 2)

>  <Reading>
222

$$$$
>  <Record sequence>
ACAUGACAGCUAGGAUAUAAAUGACAUGAGGAUCACCCAUGUUGUCCCAUGUUGACGAUCACCGAUUAGAAGGAGCCACCCAUG [Ex NG2 #1] (Eterna round: R96, puzzle: Exclusion NG 2)

>  <Reading>
89

$$$$
>  <Record sequence>
AGAGUGCUGCGAGGAUAUACAUGAGGAUCACCCAUGUAAAAGUGUGAGGCAAAGCCUCACACGAAGUAGAAGGCGCAGUACUCA [Mat - Exclusion NG 2 - Mod of JL - D34] (Eterna round: R96, puzzle: Exclusion NG 2)

>  <Reading>
25.2

$$$$
>  <Record sequence>
CAGUACUGAGGAUAUACAUGAGGAUCACCCAUGUAUCCUAGCUAGGAAACUAGCAAAUGUAGAAGGCAGUACUG [Ex3: 818] (Eterna round: R96, puzzle: Exclusion 3)

>  <Reading>
61.2

$$$$
